- System: HL-60(TB) leukemia
- experiment description: NCI tumour cell line growth inhibition, 48 h
Listing of recorded TGI by entry.
Write down the numeric answer in µM and omit the unit.

smiles data	TGI / µM
COc1cc(OC)c(F)c(COc2cnc(Nc3cnn(CCO)c3)nc2)c1F	0.702

Sample CC(=O)c1ccc2c3c1O[C@H]1c4[nH]c5ccccc5c4C[C@@]4(O)[C@@H](C2)N(CC2CC2)CC[C@]314 — what was its TGI? 37

----------
- Tested on: SK-OV-3 ovarian
- experiment description: NCI tumour cell line growth inhibition, 48 h
Listing of recorded TGI by entry.

Would you please look over these solved cases?
compound	TGI
Nc1nc(-c2ccc(Cl)cc2)cc(-c2ccc(Cl)cc2)c1-c1nc2ccccc2o1	41 µM
CCOC(=O)C(=O)Nc1ccccc1OCC	> 100 µM
COc1cc2cnc(-c3ccccc3)cc2cc1OC	> 100 µM
COc1cc(/C=C/C(=N\NC(=S)NN)c2sc(NNC(C)=O)nc2C)ccc1O	> 100 µM

Sample Fc1ccc([C@@H]2CCNC[C@H]2COc2ccc3c(c2)OCO3)cc1 — what was its TGI? 25.7 µM

Sample CCC(C)c1cccc(C)c1NC(=O)C(=O)Cc1nc2ccccc2s1 (stereo not drawn) — what was its TGI? > 100 µM

Sample CC[C@H](C)[C@H](NC(=O)NC(C)(C)C)C(=O)N(C)[C@H](C[C@@H](OC(C)=O)c1nc(C(=O)N[C@@H](Cc2ccccc2)C[C@H](C)C(=O)OC)cs1)C(C)C — what was its TGI? > 25 µM

Sample N#Cc1cc([N+](=O)[O-])ccc1NC(=O)C(=O)C(C(=O)c1ccc2ccccc2c1)C1OCc2ccccc21 (stereo not drawn) — what was its TGI? > 100 µM

Sample Cc1c2cccc-2c(OCCOC(=O)n2ccnc2)cc2c1[nH]c1ccccc12 — what was its TGI? 18.8 µM

Sample O=C1c2cccnc2-c2nccc3c2c1nc1ccc(Br)cc13 — what was its TGI? 0.389 µM

Sample CCn1c(=O)c2c3ccc(OC)cc3[nH]c2c2ccc(OC)cc21 — what was its TGI? > 100 µM

Sample O=C(c1ccco1)c1nc2cc(C(F)(F)F)ccc2[n+]([O-])c1C(F)(F)F — what was its TGI? > 100 µM

Sample COc1ccc(C2=C(Cl)c3cc(OC)c(OC)cc3C2)cc1OC — what was its TGI? > 100 µM

----------
- System: SK-MEL-5 melanoma
- experiment description: NCI tumour cell line growth inhibition, 48 h
measured property: TGI

Would you please look over these solved cases?
molecule	TGI
COc1cc(C2c3cc(OC)c(OC)c(O)c3C(=O)C3CCC(=O)N32)cc(OC)c1OC (stereo not given)	> 100 µM
O=C1CCSC(=S)N1c1ccc(Br)c(Cl)c1	35.9 µM
CN(C)c1ccc(Nc2c3ccccc3nc3cc(NC(=O)CCN4CCCC4)ccc23)cc1	2.32 µM
O=C1/C(=C/c2ccc(Cl)cc2)CN(C(=O)CCN2CCC(=NO)CC2)C/C1=C\c1ccc(Cl)cc1	3.1 µM
COC1=CC(=O)c2nc3ccccc3c3ccnc1c23	2.82 µM
CC(O)C(NC(=O)c1ccccc1)C(=O)N(Cc1ccccc1)Cc1ccccc1 (stereo not given)	> 100 µM
CN(C)C(=S)/N=c1\ss/c(=N\C(=S)N(C)C)n1Cc1ccco1	> 100 µM
CC(C)(C)OC(=O)n1c(Cl)c(C=O)c2ccccc21	> 100 µM

Sample O=C1c2cc3c(cc2CC1Cc1ccc2c(c1)CCC2)CCC3 (stereo not given) — what was its TGI? > 100 µM

Sample CC(C)C[CH2][Ge]([CH2]CC(C)C)([CH2]CC(C)C)[CH2]CC(C)C — what was its TGI? > 100 µM

----------
Listing of recorded TGI by entry.
- Test system: M14 melanoma
- experiment description: NCI tumour cell line growth inhibition, 48 h

Would you please look over these solved cases?
molecule	result
O=C(NO)c1ccc(Cn2c(=O)n(-c3ccccc3)c(=O)c3ccccc32)cc1	2.09 µM
O=C(Oc1ccc2c(-c3ccccc3)c(C(=O)Nc3ccc(Cl)cc3)c(=O)oc2c1)c1ccccc1	> 100 µM

Form: Entry = Cc1cn([C@H]2C[C@H](O)[C@@H](CO)O2)c(=O)nc1N | System = M14 melanoma | TGI = ____ > 100 µM

Form: Entry = Cn1cnc(SC2=C3C(=O)C=C4S[C@H]5C[C@]42c2c(c(O)c4c6c2=[N+]3CCC=6C=N4)N5)c1CC(N)C(=O)O (stereo partly drawn) | System = M14 melanoma | TGI = ____ 29.1 µM

Form: Entry = CN1CCN(c2ccc3nc(-c4[nH]ncc4Nc4ncnc5c4OCCCN5)[nH]c3c2)CC1 | System = M14 melanoma | TGI = ____ 0.0706 µM

Form: Entry = O=c1c2cc(I)ccc2nc(SCc2nnco2)n1Cc1ccccc1 | System = M14 melanoma | TGI = ____ > 100 µM

----------
- System: SN12C renal
- experiment description: NCI tumour cell line growth inhibition, 48 h
measured property: TGI

molecule	study system	result
CCOC1NC(/N=C/c2ccc(OC)cc2)=C(C#N)C1C#N (stereo unspecified)	SN12C renal	> 100 µM
COc1cc2cnc(-c3ccccc3)cc2cc1OC	SN12C renal	22.2 µM
OCC(O)COc1c(Cl)cc(Cl)cc1Cl (stereo unspecified)	SN12C renal	> 100 µM
O=c1[nH]c(=O)n(COCc2ccccc2)c2ccccc12	SN12C renal	> 100 µM

Sample O=C1CC(C(COCc2ccccc2)OCc2ccccc2)CC(=O)N1 (stereo unspecified) — what was its TGI? > 100 µM

Sample COc1ccc2c(c1)[nH]c(=O)c1c3cc(OC)c(OC)cc3cn21 — what was its TGI? 15.2 µM

Sample Cn1c(COC(=O)NC2CCCCC2)c(COC(=O)NC2CCCCC2)c2ccc3cc(C=O)ccc3c21 — what was its TGI? > 100 µM

Sample O=C1CCNC(=O)NC1 — what was its TGI? > 100 µM

Sample Fc1cccc(Cl)c1Cn1c(-c2c(F)cccc2Cl)nc2ccccc21 — what was its TGI? 30.8 µM

Sample Clc1ccc2nc(Cl)c3ccccc3c2c1 — what was its TGI? > 100 µM

Sample CC1(C)CN=CC(C)(OCc2ccccc2)C(=O)NC(C)(C)CN=CC(C)(OCc2ccccc2)C(=O)N1 (stereo unspecified) — what was its TGI? > 10 µM

Sample CC(=O)c1[nH]c(Nc2ccc(C)cc2)c(C(=S)Nc2ccccc2)c1N — what was its TGI? 35 µM

Sample CCOc1cc2c(=O)oc3c(OC)ccc4ccc(c1OC)c2c43 — what was its TGI? > 100 µM

----------
- Test system: SF-295 CNS
- experiment description: NCI tumour cell line growth inhibition, 48 h
Listing of recorded TGI by entry.

molecule	study system	TGI
CC[C@H]1CN(C)[C@H]2Cc3c([nH]c4ccccc34)C(=O)C[C@H]1C2C(=O)OC (stereo partly specified)	SF-295 CNS	> 100 µM
CCOC(=O)c1ccc(N(C=O)CCC(=O)CCl)cc1	SF-295 CNS	13 µM
C=C1CCC2C(C)(CO)C(O)CCC2(C)C1C/C=C1/CCOC1=O (stereo unspecified)	SF-295 CNS	> 100 µM
CCn1c(=O)c2c3ccc(OC)cc3[nH]c2c2ccc(OC)cc21	SF-295 CNS	> 100 µM

Sample S=C(N/N=C(\C(=N/NC(=S)N1CCCCC1)c1ccccn1)c1ccccn1)N1CCCCC1 — what was its TGI? > 100 µM

Sample COc1ccc(-c2nc(-c3cnccn3)n(Cc3ccccc3)n2)cc1 — what was its TGI? > 100 µM

Sample Cc1cc2oc3c(ccc(=O)n3C)c(=O)c2c(C)c1Cl — what was its TGI? > 100 µM

----------
Listing of recorded TGI by entry.
- System: MALME-3M melanoma
- experiment description: NCI tumour cell line growth inhibition, 48 h

Would you please look over these solved cases?
compound	TGI
COc1cc2[nH]c(=O)c3cc(C)cc4c(Cl)nc(c1OC)c2c43	62 µM
O=C(Nc1ccc(Sc2ccc(N=Nc3c(O)c(S(=O)(=O)O)cc4cc(S(=O)(=O)O)ccc34)cc2)cc1)c1ccc(N=Nc2c(O)c(S(=O)(=O)O)cc3cc(S(=O)(=O)O)ccc23)cc1	53.5 µM
CN(C(=O)C12C3C4C1C1C2C3C41C(O)C(C)(C)C)C(C)(C)C (stereo not drawn)	> 100 µM
O=C1NC(=O)[C@@H](c2c[nH]c3ccccc23)[C@@H]1c1c[nH]c2ccccc12	> 25 µM
CC(=O)O[C@H]1C[C@](C)(O)[C@@]23CC([C@@H](OC(=O)C(C)(C)O)[C@@H](OC(C)=O)C2(COC(=O)c2ccccc2)[C@H]1OC(C)=O)C(C)(C)O3 (stereo partly drawn)	> 100 µM

Sample OCC(O)COc1c(Cl)cc(Cl)cc1Cl (stereo not drawn) — what was its TGI? > 100 µM

Sample Cc1ccc(/C=C/C(=O)c2ccc([N+](=O)[O-])cc2)cc1 — what was its TGI? > 100 µM

Sample COc1cc(OC)c(F)c(COc2cnc(Nc3cnn(CCO)c3)nc2)c1F — what was its TGI? 7.66 µM
